# System: MS2 coat protein
# assay_comment: apparent KD of MS2 coat protein; designed switch direction (-1 OFF switch, 1 ON switch): 1; higher = weaker reporter binding
# condition: Eterna round: R95; input ligand: FMN 200 uM
Each entry gets FALSE if its apparent KD of MS2 coat protein stays under 30 nM, and TRUE if its apparent KD of MS2 coat protein is 30 nM or above.

AGAGCCGGCACUGAGGAUAUUCAUAUUAAAACAUGAGGAUCACCCAUGUAGGCCAGAAGGCCUUGGGAGAAGGCAGGUCGGCUCA [Mat - Same State 2 - Mod of UCT - D58] (puzzle: Same State 2) ... FALSE

Entry AGUCCAGCCUGAGCUGGACAAAAGCAUGUACAUGAGGAUCACCCAUGUCAUGUACAAGUUUUUUGCUCGUCUUAAAA [Zipper 46 - 11] (puzzle: Sensor for hsa-mir-208a) : is its apparent KD of MS2 coat protein no less than 30 nM? TRUE
